target_under_test: UniProt P08581
Sequence (P08581 whole entry): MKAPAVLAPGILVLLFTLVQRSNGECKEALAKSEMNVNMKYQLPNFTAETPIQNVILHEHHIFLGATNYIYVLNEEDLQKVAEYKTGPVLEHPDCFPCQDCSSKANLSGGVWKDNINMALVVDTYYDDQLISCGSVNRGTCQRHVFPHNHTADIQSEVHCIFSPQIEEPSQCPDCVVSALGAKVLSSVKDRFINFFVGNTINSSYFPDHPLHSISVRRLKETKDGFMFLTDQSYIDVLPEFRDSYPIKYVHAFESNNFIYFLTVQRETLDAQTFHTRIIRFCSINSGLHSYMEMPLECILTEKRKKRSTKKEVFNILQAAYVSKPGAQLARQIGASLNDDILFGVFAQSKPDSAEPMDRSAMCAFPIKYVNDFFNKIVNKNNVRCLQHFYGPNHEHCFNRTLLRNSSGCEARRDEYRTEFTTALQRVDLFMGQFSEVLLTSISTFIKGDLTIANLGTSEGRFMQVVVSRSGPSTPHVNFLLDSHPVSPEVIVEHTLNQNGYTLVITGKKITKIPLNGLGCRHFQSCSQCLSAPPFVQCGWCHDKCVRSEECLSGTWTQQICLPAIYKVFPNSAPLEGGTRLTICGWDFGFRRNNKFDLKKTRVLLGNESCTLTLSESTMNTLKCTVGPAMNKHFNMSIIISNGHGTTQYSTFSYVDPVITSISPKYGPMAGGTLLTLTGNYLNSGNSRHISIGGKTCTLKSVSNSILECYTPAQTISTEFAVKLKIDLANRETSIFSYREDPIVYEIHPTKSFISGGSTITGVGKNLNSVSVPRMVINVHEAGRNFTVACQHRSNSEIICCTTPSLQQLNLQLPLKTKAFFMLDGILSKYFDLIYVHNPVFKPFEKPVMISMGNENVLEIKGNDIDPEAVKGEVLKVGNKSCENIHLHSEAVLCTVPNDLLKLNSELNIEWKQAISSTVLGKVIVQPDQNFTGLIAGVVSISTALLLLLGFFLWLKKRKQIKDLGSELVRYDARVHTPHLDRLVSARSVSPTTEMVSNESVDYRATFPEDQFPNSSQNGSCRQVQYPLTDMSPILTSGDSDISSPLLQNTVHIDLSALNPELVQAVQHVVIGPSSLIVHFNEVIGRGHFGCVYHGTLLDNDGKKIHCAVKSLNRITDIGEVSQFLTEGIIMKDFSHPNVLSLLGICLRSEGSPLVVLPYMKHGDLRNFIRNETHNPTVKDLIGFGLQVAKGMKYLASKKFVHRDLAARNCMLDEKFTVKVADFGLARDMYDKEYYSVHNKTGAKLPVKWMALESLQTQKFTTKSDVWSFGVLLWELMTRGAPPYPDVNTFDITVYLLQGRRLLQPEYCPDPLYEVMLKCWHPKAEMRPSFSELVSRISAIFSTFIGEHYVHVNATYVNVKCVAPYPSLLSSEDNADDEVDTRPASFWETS
method_description: Inhibition of cMet (unknown origin) using poly(Glu, Tyr)4:1 substrate and ATP incubated fro 60 mins by ELISA

{"smiles_representation": "COc1ccc2c(c1)CNc1c(nc(C)nc1Oc1ccc(NC(=O)C3(C(=O)Nc4ccc(F)cc4)CC3)cc1)N2", "IC50": "> 1000 nM"}
{"smiles_representation": "COc1cc2c(cc1OC)Nc1ncnc(Oc3ccc(NC(=O)C4(C(=O)Nc5ccc(F)cc5)CC4)cc3F)c1NC2", "IC50": "24.4 nM"}
{"smiles_representation": "COc1cc2c(cc1OC)Nc1ncnc(Oc3ccc(NC(=O)C4(C(=O)Nc5ccc(F)cc5)CC4)cc3)c1N(C)C2", "IC50": "> 1000 nM"}
{"smiles_representation": "COc1cc2c(cc1OC)C(=O)Nc1c(ncnc1Oc1ccc(NC(=O)C3(C(=O)Nc4ccc(F)cc4)CC3)cc1)N2", "IC50": "> 1000 nM"}
{"smiles_representation": "COc1cc2c(cc1OC)Nc1nccc(Oc3ccc(NC(=O)C4(C(=O)Nc5ccc(F)cc5)CC4)cc3F)c1NC2", "IC50": "> 1000 nM"}
{"smiles_representation": "COc1cc2c(cc1OC)C(=O)Nc1c(Oc3ccc(NC(=O)C4(C(=O)Nc5ccc(F)cc5)CC4)cc3)ccnc1N2", "IC50": "> 1000 nM"}
